System: OVCAR-5 ovarian
Experiment: NCI-60 one-dose screen, 48 h
Conditions: 10 µM unless noted
This is part of a sample that, as a whole, favours compounds with a hit. Of some 83,000 tested, about 20% had one in any assay. Activity calls are given as the source filed them. The calls were made as follows: active = growth percent below 10; inactive = the rest.
Classes used: active, inactive

>  <compound>
COc1cc(CNC(=O)CCCC/C=C/C(C)C)ccc1OCc1cn(-c2cccc([N+](=O)[O-])c2)nn1

>  <category.label>
inactive

$$$$
>  <compound>
CCCNNC(=O)c1ccc(CNC(=O)/C=C/c2ccccc2)cc1

>  <category.label>
inactive

$$$$
>  <compound>
O=C(Nc1ccccc1)Nc1ccccc1CNc1nc(Nc2ccc(OCCN3CCCC3)cc2)ncc1Cl

>  <category.label>
inactive

$$$$
>  <compound>
COc1cc(-c2ccc(-c3ccc(C(=N)N)s3)s2)cc(OC)c1OC

>  <category.label>
inactive

$$$$
>  <compound>
CCOC(=O)CSc1nc2sc3c(c2c(=O)n1-c1ccccc1)CCCCC3

>  <category.label>
inactive

$$$$
>  <compound>
C=C(CNCCO)[C@@H]1CC[C@]2(CO)CC[C@]3(C)[C@H](CC[C@@H]4[C@@]5(C)CCC(NCCO)C(C)(C)[C@@H]5CC[C@]43C)[C@@H]12 (stereo partly drawn)

>  <category.label>
inactive

$$$$
>  <compound>
N#C/C(=N\Nc1ccccc1)C(=O)Nc1cc(-c2ccccc2)nn1-c1ccccc1

>  <category.label>
inactive

$$$$
>  <compound>
C#Cc1cccc(Nc2nc(Cl)nc3cc(NC(=O)CCl)ccc23)c1

>  <category.label>
active

$$$$
>  <compound>
CCOC(=O)c1ccc2c(c1)c1c(C)c3cnccc3c(C)c1n2C

>  <category.label>
active

$$$$
>  <compound>
O=C1C2C(c3cccs3)C=C(c3ccc(Cl)cc3)N2C(=S)N1c1ccccc1 (stereo not drawn)

>  <category.label>
inactive

$$$$
>  <compound>
Nc1ncc(-c2ccc3ncnc(N4CCc5cc(F)c(Cl)cc54)c3c2)cn1

>  <category.label>
inactive

$$$$
>  <compound>
[2H]C([2H])([2H])Oc1c(F)cccc1/C=C/C(=O)/C=C(O)/C=C/c1cccc(F)c1OC([2H])([2H])[2H]

>  <category.label>
inactive

$$$$
>  <compound>
Cc1ccc2c(c1)CC(O)CC1C(=O)N(CCO)CC(=O)N21 (stereo not drawn)

>  <category.label>
inactive

$$$$
>  <compound>
Cc1ccc(C2=Nc3c(N)nc(N)nc3NC(c3cccc(Nc4ccnc5cc(C(F)(F)F)ccc45)c3)C2)cc1 (stereo not drawn)

>  <category.label>
inactive

$$$$
>  <compound>
O=c1ccc2c(ccc3ncccc32)o1

>  <category.label>
inactive

$$$$
>  <compound>
COC12C=C/C(=C(/C(=O)OCc3ccccn3)C(=O)CCCCCCCCC3(OC)C=C/C(=C(/C(=O)OCc4ccccn4)C(=O)CCCCCCCC1)O3)O2

>  <category.label>
inactive

$$$$
>  <compound>
COc1cccc(-c2cc(-c3ccc(Nc4nc(Nc5ccc(Cl)cc5)nc(Nc5ccc(Cl)cc5)n4)cc3)nc(N)c2C#N)c1

>  <category.label>
inactive

$$$$
>  <compound>
C#Cc1c(I)n(C2OC(CO[Si](C)(C)C(C)(C)C)C3OC(C)(C)OC32)c(=O)[nH]c1=O (stereo not drawn)

>  <category.label>
inactive

$$$$
>  <compound>
CSc1nn2c(-c3cc4cc(Br)ccc4oc3=O)ccnc2c1C#N

>  <category.label>
inactive

$$$$
>  <compound>
c1ccc(-c2nc(N3CCNCC3)c3oc(-c4ccccc4)nc3n2)cc1

>  <category.label>
active

$$$$
>  <compound>
Cc1ccc2nc(/C=C/c3ccc(N(C)C)cc3)cc(C)c2c1

>  <category.label>
inactive

$$$$
>  <compound>
c1ccc(-c2cn3nc(-c4c[nH]c5ccccc45)sc3n2)cc1

>  <category.label>
inactive

$$$$
>  <compound>
CCN=c1sc2c(n1NC(=O)c1cc3ccc1CCc1ccc(cc1)CC3)C(=O)c1ccccc1C2=O

>  <category.label>
active

$$$$
>  <compound>
N#C/C(=C\c1cccc2cnccc12)N1N=NC2C=CC=CC21 (stereo not drawn)

>  <category.label>
inactive

$$$$
>  <compound>
Oc1cccc(-c2nc(-c3n[nH]c(=S)n3-c3ccccc3)cc3c2[nH]c2ccccc23)c1

>  <category.label>
inactive

$$$$
>  <compound>
COc1ccccc1-c1nc2ccc3[nH]ncc3c2c2c1CCCC2

>  <category.label>
inactive

$$$$
>  <compound>
N#CC1=C(N)Oc2c(ccc3ccccc23)C1c1cc2ccccc2n2nnnc12 (stereo not drawn)

>  <category.label>
inactive

$$$$
>  <compound>
CN1CCN(Cn2nc(-c3cc(Cl)cc(Cl)c3Cl)oc2=S)CC1

>  <category.label>
inactive

$$$$
>  <compound>
COC(=O)c1cc(-c2ccc(OC)c(OC)c2)[nH]c1N/N=C/c1c(Cl)cccc1Cl

>  <category.label>
inactive

$$$$
>  <compound>
Cc1[nH]c(C(=O)Nc2ccccc2OC2CCNC2)c(Cl)c1Cl (stereo not drawn)

>  <category.label>
inactive

$$$$
>  <compound>
NC(=N\N=C/c1ccc(Cl)cc1Cl)/C(N)=N\N=C/c1ccc(Cl)cc1Cl

>  <category.label>
inactive

$$$$
>  <compound>
CCOC(=O)C1=C(c2ccccc2)N=C2SC=C(c3cccc([N+](=O)[O-])c3)N2C1c1ccc(O)cc1 (stereo not drawn)

>  <category.label>
inactive

$$$$
>  <compound>
COC(=O)[C@@H](Cc1c[nH]c2ccccc12)NC(=O)[C@H](Cc1ccccc1)NCc1ccncc1

>  <category.label>
inactive

$$$$
